Hey, just so you know, these numbers are from ChEMBL document CHEMBL1130287.

Listed next: entries and their corresponding half-life.
- method.description: Time taken to decrease the plasma concentration to half of the maximum concentration when compound was administered intravenously in rats
- Assay type: ADME, organism-based
- stated.conditions: rat, iv
endpoint: half-life (h)

given_smiles=CCCCN(CCCC)C(=O)CN1C[C@H](c2ccc3c(c2)OCC3)[C@@H](C(=O)O)[C@@H]1c1ccc(OC)cc1 recorded_result=4.7
given_smiles=CCCCN(CCCC)C(=O)CN1C[C@H](c2ccc3ccoc3c2)[C@@H](C(=O)O)[C@@H]1c1ccc(OC)cc1 recorded_result=4.7
given_smiles=CCCCN(CCCC)C(=O)CN1C[C@H](c2ccc3c(c2)OCO3)[C@@H](C(=O)O)[C@@H]1c1ccc(OC)cc1 recorded_result=3.5
given_smiles=CCCCN(CCCC)C(=O)CN1C[C@H](c2ccc3c(c2)CCO3)[C@@H](C(=O)O)[C@@H]1c1ccc(OC)cc1 recorded_result=1.1
given_smiles=CCCCN(CCCC)C(=O)CN1C[C@H](c2ccc3occc3c2)[C@@H](C(=O)O)[C@@H]1c1ccc(OC)cc1 recorded_result=3.2
